Target: Cyclic GMP-AMP synthase (Mus musculus)
Assay: cyclic GMP-AMP synthase inhibitors, mouse, primary biochemical chemiluminescence (AID 1259399)
Settings: recombinant cGAS, Kinase-Glo ATP depletion luminescence; at 12.5 µM
The whole screen tested about 160,000 compounds, of which about 240 (0.15%) were called active. Cut-off read from the data, not from the text of the source: active = inhibition above about 40%; inactive = the rest. The entries come from a sample that favours actives as a whole.
Labels: YES for active, NO for inactive

>>> print(df.to_string())
                                    molecule  group_label
 0     O=c1c(O)c(Br)ccc2c(Br)c(O)c(O)c(O)c12          YES
 1  C=C(C)CN(CC)C(=O)c1ccc(-c2ccc(OC)c(OC)c2OC)s1           NO
 2  Cc1ccc(OC2(C(=O)N(C)Cc3cc(C4CC4)n[nH]3)CCNCC2)cc1           NO
 3  O=C(Cc1ccccc1)N1CC(=O)N(Cc2ccco2)CC(O)C1 (stereo not drawn)           NO
 4  C=CCN(Cc1cccnc1)C(=O)C1CCCN1C(=O)C1CCCCC1 (stereo not drawn)           NO
 5  CC(C)(C)c1cc(=O)n2[nH]cc(-c3ccccc3Cl)c2n1           NO
 6  CC(C)(C)S(=O)(=O)c1ccc2nn(CC(=O)Nc3ccc(Cl)cc3)c(=O)n2n1           NO
 7  CCn1nc(C(=O)N2CCN(c3ccccc3)CC2)c2c1CCN(C(=O)c1csc(SC)n1)C2           NO
 8  CSc1ccc(C(=O)N2CCCC(CO)(CCCc3ccccc3)C2)cc1 (stereo not drawn)           NO
 9  COc1ccccc1C1=NOC(CN(Cc2ccccc2Cl)C(=O)C2CCC2)C1 (stereo not drawn)           NO
10  CC(C)(C)c1cc(=O)n2[nH]cc(-c3ccc(Cl)cc3)c2n1          YES
11  CCc1ccc(NC(=O)CSc2nccn3nc(-c4ccc(C)cc4)cc23)cc1           NO
12      CC(=O)N(CCN(C)C)c1nc2cc3c(cc2s1)OCO3           NO
13  Cc1ccc(C)c(NC(=O)Cn2nc3c(=O)n(-c4ccc(Br)cc4)ccn3c2=O)c1           NO
14     c1cc(C2CCN(C3CCC4(CCNCC4)CC3)CC2)ccn1           NO
15  COc1cc(/C=C2/C(=O)N(c3ccc(Cl)c(Cl)c3)N=C2C)ccc1O           NO
16  COc1ccc(/C=C/C(=O)N2CCC3(CC2)CC3C(=O)N2CCN(c3ccccn3)CC2)cc1OC (stereo not drawn)           NO
17  CCOC(=O)CN(C(=O)c1cc(C)oc1C)[C@H]1[C@H](OC)[C@@H]2O[C@H]1c1ccccc12           NO

====

Biological target: Cyclic GMP-AMP synthase (Mus musculus) (UniProt Q8C6L5)
Sequence (Q8C6L5 whole entry, looked up): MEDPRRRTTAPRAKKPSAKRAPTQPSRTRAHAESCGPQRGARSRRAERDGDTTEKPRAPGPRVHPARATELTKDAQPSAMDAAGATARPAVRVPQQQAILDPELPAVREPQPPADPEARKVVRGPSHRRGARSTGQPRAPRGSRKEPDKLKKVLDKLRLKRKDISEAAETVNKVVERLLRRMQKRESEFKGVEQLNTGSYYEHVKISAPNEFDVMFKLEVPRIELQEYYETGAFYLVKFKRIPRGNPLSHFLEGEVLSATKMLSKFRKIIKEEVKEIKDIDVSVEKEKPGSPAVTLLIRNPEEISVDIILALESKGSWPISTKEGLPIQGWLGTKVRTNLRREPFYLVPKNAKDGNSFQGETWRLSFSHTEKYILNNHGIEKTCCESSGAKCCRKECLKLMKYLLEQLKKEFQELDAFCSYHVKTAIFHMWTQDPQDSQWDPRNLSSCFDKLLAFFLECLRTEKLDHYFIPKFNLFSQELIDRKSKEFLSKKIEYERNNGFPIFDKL
Assay: cyclic GMP-AMP synthase inhibitors, mouse, primary biochemical chemiluminescence (AID 1259399)
Conditions: recombinant cGAS, Kinase-Glo ATP depletion luminescence; at 12.5 µM
The campaign covered roughly 160,000 compounds. About 240 (0.15%) were called active. Cut-off read from the data, not from the text of the source: active = inhibition above about 40%; inactive = the rest. Shown is part of a subset that was picked to be rich in actives.
Possible outcomes: TRUE (active), FALSE (inactive)

In [3]: df
Out[3]:
                                    compound  group_label
 0  O=C(Nc1cccc(-c2cccc(-c3ccc(F)cc3)n2)c1)c1c(F)c(F)c(F)c(F)c1F        FALSE
 1  O=C(c1ccccc1)N1CCN2C[C@@H](c3ccccc3)[C@H](CO)[C@H]2C1        FALSE
 2   CCCCn1c(SCc2nnc(C)o2)nc2sc(C)c(C)c2c1=O        FALSE
 3  CCOc1ccc(C2c3[nH]c4ccccc4c3CCN2C(=O)CSC)cc1 (stereo unspecified)        FALSE
 4     O=C1c2ccccc2C(=O)c2cc(Sc3ccccc3)ccc21        FALSE
 5  O=C(COc1ccc(Cl)cc1)Nc1c(-c2cccc(F)c2)nc2ccccn12        FALSE
 6  COc1ccc(OC)c(CC(=O)NC2CC(C)(C)Cc3c2cnn3-c2cccc(F)c2)c1 (stereo unspecified)        FALSE
 7  Cn1c(=O)n(Cc2ccc(Cl)cc2)c(=O)c2c1nc1oc(C(C)(C)C)cn12        FALSE
 8  COc1ccccc1C(=O)N1CCN(CC(OCc2c(F)cccc2F)c2ccc(Cl)cc2)CC1 (stereo unspecified)        FALSE
 9  O=C(NC1CCN(c2ccccc2C(=O)NCc2ccc3c(c2)OCO3)CC1)c1ccccc1Cl        FALSE
10  Cc1ccccc1-n1cc(CN(C)C(=O)c2cn(Cc3cccc4ccccc34)nn2)cn1        FALSE
11  COc1cccc(-c2cc(-c3ccc(C(=O)NCCc4ccc(OC)c(OC)c4)cc3)[nH]n2)c1        FALSE
12       CCc1ccc(-c2nn(-c3ccccc3)cc2C=NO)cc1        FALSE
13  C=CCN(C(=O)CCl)c1nc(-c2ccc(Cl)c(Cl)c2)cs1         TRUE
14  COc1ccc(N2C(=O)c3cccc4cccc(c34)C2=O)cc1OC        FALSE
15  Cn1c(=O)[nH]c(=O)c2c1nc(N1CCN(Cc3ccccc3F)CC1)n2Cc1ccccc1        FALSE
16  O=C(Nc1nnc(C23CC4CC(CC(C4)C2)C3)s1)C12CC3CC(CC(C3)C1)C2        FALSE
17  C[N+](C)(CCCCCC[N+](C)(C)CCCN1C(=O)c2cccc3cccc(c23)C1=O)CCCN1C(=O)c2cccc3cccc(c23)C1=O         TRUE
18  COc1ccc(C(NC(=O)C2CCN(CCCc3ccccc3)CC2)c2cccs2)cc1 (stereo unspecified)        FALSE
19  O=C(Nc1ccc2c(c1)OCO2)c1cc2nc(-c3ccc(F)cc3)cc(C(F)(F)F)n2n1        FALSE
20  COc1ccccc1C(=O)N1CCC(n2c(=O)oc3ccc(Cl)cc32)CC1        FALSE
21  CCOC(=O)C1(Cc2ccc(OC)cc2)CCN(C(=O)C2CCCC2)CC1        FALSE
22  CCN1CCN(C(=O)c2ccc(CSc3nnc(-c4cccs4)n3CC)cc2)CC1        FALSE
23  CCc1nc2c(OCC(N)=O)cccn2c1N(C)C(=O)c1ccc(OC)cc1        FALSE
24         NC(=O)c1cncc(-n2ccnc2-c2ccccc2)c1        FALSE
25  CCCS(=O)(=O)N1CCCC(C(=O)NC(C)CC)C1 (stereo unspecified)        FALSE
26  Cc1ccccc1OCC(=O)N(CCn1cccn1)c1nc2ccccc2s1        FALSE
27  CC1(C(=O)Nc2cccc3cccnc23)CCN1C(=O)Cc1ccccc1Cl (stereo unspecified)        FALSE
28  O=C(NNc1nc2c(Cl)cccc2s1)c1cc(=O)c2ccccc2o1        FALSE
29  CCc1nc2c(OCCOc3ccc(F)cc3)cccn2c1N(C)C(=O)c1ccncc1        FALSE
30             CCCOc1nn(CCC)cc1C(=O)Nc1nccs1        FALSE
31  COc1cc(C=C2N=C(C(C)(C)C)OC2=O)ccc1OC(F)F        FALSE
32  COCCN1C(=O)C(c2c(C(C)C)[nH]n(-c3ccc(Cl)c(Cl)c3)c2=O)=C([n+]2ccccc2)C1=O        FALSE
33  COc1cccc(Cc2c(C)nc(C)nc2N2CCN(S(=O)(=O)c3ccc(NC(C)=O)cc3)CC2)c1        FALSE
34             COc1ccc(C=C2SC(=S)NC2=O)cc1OC        FALSE
35  O=C(c1ccccc1Br)N1CCc2nc(-c3ccccc3)nc(N3CCCCC3)c2C1        FALSE
36  COc1ccc(CCOc2nc(-c3ccc(OC)cc3)n(-c3ccc(NC(=O)Nc4ccccc4C)cc3)n2)cc1        FALSE
37  COc1cccc(CNC(=O)Cn2c3ccc(F)cc3c3ncn(Cc4ccccc4)c(=O)c32)c1        FALSE
38  COC(=O)c1ccccc1NC(=O)N1CCc2ccccc2C1c1ccc(F)cc1 (stereo unspecified)        FALSE
39  Cc1ccccc1N(CCCN1C(=O)c2cccc3cccc(c23)C1=O)C(=O)c1ccc([N+](=O)[O-])cc1        FALSE
40  Cc1ccccc1N1CCn2c1nc1c2c(=O)n(CCN2CCOCC2)c(=O)n1C        FALSE
